measurement.context: human
quantity.name: Hepatotoxicity (cirrhosis)
Answer field: number only, no words.

Find the measured Hepatotoxicity (cirrhosis) of `CO[C@H](C(=O)[C@@H](O)[C@@H](C)O)[C@@H]1Cc2cc3cc(O[C@H]4C[C@@H](O[C@H]5C[C@@H](O)[C@H](O)[C@@H](C)O5)[C@H](O)[C@@H](C)O4)c(C)c(O)c3c(O)c2C(=O)[C@H]1O[C@H]1C[C@@H](O[C@H]2C[C@@H](O[C@H]3C[C@](C)(O)[C@H](O)[C@@H](C)O3)[C@@H](O)[C@@H](C)O2)[C@H](O)[C@@H](C)O1` and report it. 0

Find the measured Hepatotoxicity (cirrhosis) of `Cc1nc(NS(=O)(=O)c2ccc(N)cc2)oc1C` and report it. 0

----------
Below is a list of entries, each paired with its recorded Hepatotoxicity (acute) value.
measurement.context: human, serum
Answer field: number only, no words.

CCc1nc(N)nc(N)c1-c1ccc(Cl)cc1.COc1ncnc(NS(=O)(=O)c2ccc(N)cc2)c1OC; 14

Find the measured Hepatotoxicity (acute) of `c1ccc([C@H]2CN3CCSC3=N2)cc1` and report it. 0

----------
measurement.context: human
quantity.name: Hepatotoxicity (severe hepatitis)
Answer field: number only, no words.

CO/N=C(\C(=O)N[C@@H]1C(=O)N2C(C(=O)O)=C(COC(N)=O)CS[C@H]12)c1ccco1; 1
CN(Cc1cnc2nc(N)nc(N)c2n1)c1c(Cl)cc(C(=O)N[C@@H](CCC(=O)O)C(=O)O)cc1Cl; 0
NS(=O)(=O)c1cc2c(cc1Cl)NCNS2(=O)=O [HYDROCHLOROTHIAZIDE]; 1
COc1cc(NCc2ccc3nc(N)nc(N)c3c2C)cc(OC)c1OC [TRIMETREXATE]; 0
Cc1c(O)c(=O)ccn1C; 0

Find the measured Hepatotoxicity (severe hepatitis) of `O=CN(O)CCCP(=O)(O)O` and report it. 0

Find the measured Hepatotoxicity (severe hepatitis) of `C[C@H]1COc2c(N3CCN(C)CC3)c(F)cc3c(=O)c(C(=O)O)cn1c23.C[C@H]1COc2c(N3CCN(C)CC3)c(F)cc3c(=O)c(C(=O)O)cn1c23.O` and report it. 5

Find the measured Hepatotoxicity (severe hepatitis) of `C(=C\c1ccccc1)/CN1CCN(C(c2ccccc2)c2ccccc2)CC1` and report it. 0

Find the measured Hepatotoxicity (severe hepatitis) of `CNC(=O)C[C@@H](N)C(=O)N[C@@H](C(=O)N[C@@H]1C(=O)N2[C@@H]1SC(C)(C)[C@@H]2C(=O)O)c1ccc(O)cc1` and report it. 0

Find the measured Hepatotoxicity (severe hepatitis) of `COc1ccccc1Oc1c(NS(=O)(=O)c2ccc(C(C)(C)C)cc2)nc(-c2ncccn2)nc1OCCO` and report it. 0

Find the measured Hepatotoxicity (severe hepatitis) of `COC(=O)[C@H]1[C@H]2C[C@@H]3c4[nH]c5cc(OC)ccc5c4CCN3C[C@H]2C[C@@H](OC(=O)c2cc(OC)c(OC)c(OC)c2)[C@@H]1OC` and report it. 0

Find the measured Hepatotoxicity (severe hepatitis) of `CC(C)(S)C(=O)N[C@@H](CS)C(=O)O` and report it. 0

Find the measured Hepatotoxicity (severe hepatitis) of Cc1c(-c2ccccc2)oc2c(C(=O)OCCN3CCCCC3)cccc2c1=O [FLAVOXATE] and report it. 0

Find the measured Hepatotoxicity (severe hepatitis) of COC(=O)C1=C(C)NC(C)=C(C(=O)OC(C)C)C1c1cccc2nonc12 (configuration not stated) and report it. 0

Find the measured Hepatotoxicity (severe hepatitis) of `CC[C@H](c1ccc(O)cc1)[C@@H](CC)c1ccc(O)cc1` and report it. 0

Find the measured Hepatotoxicity (severe hepatitis) of Cc1oc(=O)oc1CN1CCN(c2cc3c(cc2F)c(=O)c(C(=O)O)c2n3C(C)S2)CC1 (configuration not stated) and report it. 0

Find the measured Hepatotoxicity (severe hepatitis) of NS(=O)(=O)c1cc2c(cc1Cl)N=CNS2(=O)=O [CHLOROTHIAZIDE] and report it. 1

Data provenance: ChEMBL document CHEMBL3137667
